Data credit: patent US20250250357A1

Target: T1, human MSLN-hFc protein (Acro, Cat. No. MSN-H5253) (human, UniProt Q13421 296-580)
T1 construct: bought protein; also called human MSLN full-length protein; not shown: human Fc (hFc) of the bought protein
T1 sequence (Q13421 other isoform, or with tags, fused parts or gaps limits assumed): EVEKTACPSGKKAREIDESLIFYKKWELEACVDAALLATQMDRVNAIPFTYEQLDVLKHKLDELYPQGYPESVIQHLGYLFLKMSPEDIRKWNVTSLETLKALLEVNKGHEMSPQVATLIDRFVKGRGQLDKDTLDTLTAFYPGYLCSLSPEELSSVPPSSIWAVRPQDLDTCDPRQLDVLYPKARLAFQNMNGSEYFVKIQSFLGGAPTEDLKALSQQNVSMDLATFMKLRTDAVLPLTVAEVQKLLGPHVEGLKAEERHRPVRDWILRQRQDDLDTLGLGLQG
Assay: ELISA, coated human MSLN-hFc, antibody 1 nM
endpoint: OD450 nm
Answer with a number only.

Worked cases, OD450 nm given:
binder	OD450 nm
F2.23.12-H4 (scFv, not shown: small tags and cut ends, also called S009-F2.23.12 humanized VH1 + VL4) scFv: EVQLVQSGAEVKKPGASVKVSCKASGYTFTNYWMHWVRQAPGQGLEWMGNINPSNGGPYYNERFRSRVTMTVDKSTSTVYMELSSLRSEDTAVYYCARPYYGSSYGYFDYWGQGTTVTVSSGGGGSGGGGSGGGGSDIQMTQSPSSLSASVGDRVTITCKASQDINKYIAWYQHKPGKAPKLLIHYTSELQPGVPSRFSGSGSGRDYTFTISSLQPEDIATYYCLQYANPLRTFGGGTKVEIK	0.57
F2.23.12-H1 (scFv, not shown: small tags and cut ends, also called S009-F2.23.12 humanized VH1 + VL1) scFv: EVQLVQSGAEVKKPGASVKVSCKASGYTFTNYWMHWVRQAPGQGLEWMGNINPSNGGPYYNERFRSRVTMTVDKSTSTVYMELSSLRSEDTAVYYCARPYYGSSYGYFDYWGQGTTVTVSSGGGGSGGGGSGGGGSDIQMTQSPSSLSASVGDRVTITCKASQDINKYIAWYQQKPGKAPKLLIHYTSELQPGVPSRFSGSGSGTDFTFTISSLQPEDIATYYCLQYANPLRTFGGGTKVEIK	0.26

Lab note: next binder to report on.
Query: Answer with the recorded OD450 nm for the binder listed here: F2.23.12-H8 (scFv, not shown: small tags and cut ends, also called S009-F2.23.12 humanized VH2 + VL4) scFv: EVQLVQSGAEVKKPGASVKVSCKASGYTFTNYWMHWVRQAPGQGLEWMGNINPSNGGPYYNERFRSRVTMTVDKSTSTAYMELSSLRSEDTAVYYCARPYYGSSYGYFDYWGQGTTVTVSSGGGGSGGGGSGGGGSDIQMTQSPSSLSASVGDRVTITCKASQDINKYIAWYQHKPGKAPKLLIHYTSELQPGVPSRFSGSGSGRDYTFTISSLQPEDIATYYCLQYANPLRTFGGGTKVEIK
Result: 0.17
